Kindly state survival for each of the entries shown.
Tested on: DeltatarO mutant
Test: S. aureus survival, RN4220 and DeltatarO strains – OD600, teichoic acid synthesis inhibitors, primary screen (AID 463173)
Conditions: S. aureus RN4220 wild type/DeltatarO growth, OD600, 18 h, active compounds read low, screened at 18.75 µg/mL (by protocol)
About 4,300 (8.3%) of roughly 52,000 compounds were called active. Shown is part of a subset that was picked to be rich in actives.
Reply numerically in %, unit not repeated.

Request: survival, test system DeltatarO mutant, entry CC(=O)Nc1ccc(NC(=O)CC(C)n2ccc(C)n2)cc1 (stereo not given)
52

Ok, now Cc1cc(Cl)ccc1NC(=O)CS(=O)(=O)c1cccc2nsnc12
125

Ok, now Cc1ccc(NC(=O)c2cnc(SCC(=O)Nc3cc(C)on3)n(C)c2=O)cc1
88

Ok, now N#Cc1c(Nc2ccccc2)sc(C(=O)c2cccs2)c1N
75

Ok, now CCOc1ccccc1CNC(=O)CC(C)n1ccc(C)n1 (stereo not given)
77

Ok, now Cc1cc(C)cc(NC(=O)Cn2c(=O)n(CC(=O)NCCc3ccccc3)c(=O)c3ccccc32)c1
62

Ok, now CCc1ccc(C(=O)c2cn(CC(=O)Nc3ccc(Cl)cc3)c3cc4c(cc3c2=O)OCO4)cc1
146

Ok, now Cc1ccc(NC(=O)CCN2CCN(CCO)CC2)cc1C
54

Ok, now CCCCCn1c(=O)[nH]c2cc(C(=O)N3CCN(c4cccc(C(F)(F)F)c4)CC3)ccc2c1=O
66

Ok, now Cc1cccc(N2CCN(C(=O)CCc3c(C)nc4ncnn4c3C)CC2)c1C
79

Hey, just so you know, these numbers are from PubChem BioAssay AID463173.
